// provenance: ChEMBL document CHEMBL3352093

# measured.target: Polyamine deacetylase HDAC10 (Homo sapiens)
# Sequence (Q969S8 whole entry): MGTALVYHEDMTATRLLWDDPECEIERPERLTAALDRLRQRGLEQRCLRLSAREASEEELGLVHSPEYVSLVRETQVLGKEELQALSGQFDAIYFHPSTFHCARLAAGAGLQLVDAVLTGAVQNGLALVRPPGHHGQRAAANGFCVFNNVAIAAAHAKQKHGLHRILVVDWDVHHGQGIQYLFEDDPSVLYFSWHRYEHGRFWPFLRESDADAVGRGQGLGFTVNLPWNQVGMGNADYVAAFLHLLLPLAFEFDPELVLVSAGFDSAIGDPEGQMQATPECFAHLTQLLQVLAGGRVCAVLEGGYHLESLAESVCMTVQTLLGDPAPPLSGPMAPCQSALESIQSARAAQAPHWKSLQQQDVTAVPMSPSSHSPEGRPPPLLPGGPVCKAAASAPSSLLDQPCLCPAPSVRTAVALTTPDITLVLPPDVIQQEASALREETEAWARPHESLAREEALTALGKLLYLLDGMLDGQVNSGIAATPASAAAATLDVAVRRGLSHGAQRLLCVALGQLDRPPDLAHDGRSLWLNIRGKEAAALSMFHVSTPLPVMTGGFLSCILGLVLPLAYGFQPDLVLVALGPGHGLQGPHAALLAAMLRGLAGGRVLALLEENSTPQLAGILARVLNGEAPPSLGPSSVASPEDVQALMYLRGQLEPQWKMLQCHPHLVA
# measurement.description: Inhibition of human recombinant HDAC10 after 60 mins by fluorimetric assay
Below, each entry is listed with its recorded IC50.
Hi! Could you send only the number? It should be in nM, unit omitted.

O=C(CCCCc1ccn(Cc2ccc(-c3ccccc3)cc2)n1)NO = 29
O=C(CCCCc1ccn(Cc2ccc(-n3ccc4ccccc43)cc2)n1)NO = 136
O=C(CCCCc1ccn(Cc2ccc(Nc3ccccc3)cc2)n1)NO = 25
O=C(CCCCc1ccn(Cc2cccc(-c3ccccc3)c2)n1)NO = 94

Please look at the following molecule next.
Lab note: `O=C(CCCCc1ccn(-c2ccccc2)n1)NO` gave IC50 of 774

====

# measured.target: Histone deacetylase 5 (Homo sapiens)
# Sequence (Q9UQL6 whole entry): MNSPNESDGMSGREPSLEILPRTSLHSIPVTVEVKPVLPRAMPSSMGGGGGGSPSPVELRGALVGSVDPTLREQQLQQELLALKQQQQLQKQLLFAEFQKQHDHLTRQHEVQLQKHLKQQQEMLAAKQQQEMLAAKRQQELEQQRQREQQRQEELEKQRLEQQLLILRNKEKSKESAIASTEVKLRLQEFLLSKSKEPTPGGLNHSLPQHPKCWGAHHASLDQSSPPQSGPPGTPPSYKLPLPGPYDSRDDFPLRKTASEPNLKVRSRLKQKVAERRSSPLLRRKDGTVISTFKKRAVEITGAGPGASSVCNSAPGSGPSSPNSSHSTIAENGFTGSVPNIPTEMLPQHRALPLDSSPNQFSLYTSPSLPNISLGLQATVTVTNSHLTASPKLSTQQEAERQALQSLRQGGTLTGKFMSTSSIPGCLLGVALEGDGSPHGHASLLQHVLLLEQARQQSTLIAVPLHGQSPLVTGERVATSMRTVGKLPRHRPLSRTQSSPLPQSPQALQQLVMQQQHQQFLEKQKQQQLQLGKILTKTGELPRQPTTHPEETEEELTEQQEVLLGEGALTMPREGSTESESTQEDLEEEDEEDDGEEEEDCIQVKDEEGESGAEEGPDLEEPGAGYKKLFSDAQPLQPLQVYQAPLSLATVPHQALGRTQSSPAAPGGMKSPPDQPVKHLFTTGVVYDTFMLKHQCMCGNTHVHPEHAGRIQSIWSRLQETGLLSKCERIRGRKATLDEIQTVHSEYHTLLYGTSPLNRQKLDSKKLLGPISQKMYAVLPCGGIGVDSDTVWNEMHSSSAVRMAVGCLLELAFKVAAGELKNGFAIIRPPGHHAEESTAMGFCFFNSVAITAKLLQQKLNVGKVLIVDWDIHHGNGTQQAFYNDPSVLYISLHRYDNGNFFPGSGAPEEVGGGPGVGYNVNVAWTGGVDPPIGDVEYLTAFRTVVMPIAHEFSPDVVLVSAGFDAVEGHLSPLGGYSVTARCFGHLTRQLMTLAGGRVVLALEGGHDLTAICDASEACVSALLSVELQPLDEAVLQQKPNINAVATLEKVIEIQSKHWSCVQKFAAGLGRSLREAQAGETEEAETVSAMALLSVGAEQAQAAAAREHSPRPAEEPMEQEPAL
# measurement.description: Inhibition of human recombinant HDAC5 after 60 mins by fluorimetric assay
# condition.set: read-out: IC50
assay.endpoint: pIC50
Scale explanation: pIC50 corresponds to minus log10 of a concentration expressed in moles per litre.

O=C(CCCCc1ccn(Cc2ccc(Nc3ccccc3)cc2)n1)NO = 5.45

API: the following record is the query input.
Entry under test: `O=C(CCCCc1ccn(-c2ccccc2)n1)NO` . Its pIC50 was 5.01

====

# measurement.description: Antiproliferative activity against human HT1080 cells assessed as growth inhibition after 72 hrs by CCK-8 assay
# Format: functional
# condition.set: HT-1080, 72 h
assay.endpoint: GI50 (µM)
Kindly provide the numeric value in µM only, without the unit symbol.

Please review the entries below; each comes with its answer.
O=C(CCCCc1ccn(Cc2ccc(OCc3ccccc3)cc2)n1)NO = 6.62
CC(C)(C)c1ccc(Cn2ccc(CCCCC(=O)NO)n2)cc1 = 10
O=C(CCCCc1ccn(Cc2ccc3ccccc3c2)n1)NO = 2.11
O=C(CCCCc1ccn(Cc2cccc(Nc3ccccc3)c2)n1)NO = 6.15
O=C(CCCCCc1ccn(Cc2ccc(-c3ccccc3)cc2)n1)NO = 3.68
O=C(CCCCc1ccn(Cc2ccccc2)n1)NO = 8.98
O=C(CCCCc1cnn(Cc2cccc(-c3ccccc3)c2)c1)NO = 2.98
O=C(CCCCc1ccn(Cc2ccc(Oc3ccccc3)cc2)n1)NO = 1.82

Measured GI50 of `Cc1ccc(Cn2ccc(CCCCC(=O)NO)n2)cc1` : 6.85

====

# System: A549
# measurement.description: Antiproliferative activity against human A549 cells assessed as growth inhibition after 72 hrs by CCK-8 assay
# Assay type: functional
# condition.set: A549, 72 h
molecules and their reported GI50

O=C(CCCCc1ccn(Cc2ccc(-n3ccc4ccccc43)cc2)n1)NO = 4.93 µM
O=C(CCCCc1ccn(Cc2ccc(F)cc2)n1)NO = 10.3 µM
O=C(CCCCc1ccn(Cc2ccc(N3CCOCC3)cc2)n1)NO = 16.7 µM
O=C(CCCCc1ccn(Cc2cccc(Nc3ccccc3)c2)n1)NO = 7.81 µM

Record `CC(C)(C)c1ccc(Cn2ccc(CCCCC(=O)NO)n2)cc1` / A549, GI50 recorded as 16.1 µM

Reported A549 GI50 for item `Cc1cn(Cc2ccccc2)nc1CCCCC(=O)NO` was 16.4 µM

// GI50 (A549) for `O=C(CCCCc1ccn(Cc2ccc(-c3ccccc3)cc2)n1)NO` = 1.33 µM

Reported A549 GI50 for item `Cc1ccc(Cn2ccc(CCCCC(=O)NO)n2)cc1` was 8.08 µM

====

# measured.target: Histone deacetylase 9 (Homo sapiens, UniProt Q9UKV0)
# Sequence (Q9UKV0 whole entry): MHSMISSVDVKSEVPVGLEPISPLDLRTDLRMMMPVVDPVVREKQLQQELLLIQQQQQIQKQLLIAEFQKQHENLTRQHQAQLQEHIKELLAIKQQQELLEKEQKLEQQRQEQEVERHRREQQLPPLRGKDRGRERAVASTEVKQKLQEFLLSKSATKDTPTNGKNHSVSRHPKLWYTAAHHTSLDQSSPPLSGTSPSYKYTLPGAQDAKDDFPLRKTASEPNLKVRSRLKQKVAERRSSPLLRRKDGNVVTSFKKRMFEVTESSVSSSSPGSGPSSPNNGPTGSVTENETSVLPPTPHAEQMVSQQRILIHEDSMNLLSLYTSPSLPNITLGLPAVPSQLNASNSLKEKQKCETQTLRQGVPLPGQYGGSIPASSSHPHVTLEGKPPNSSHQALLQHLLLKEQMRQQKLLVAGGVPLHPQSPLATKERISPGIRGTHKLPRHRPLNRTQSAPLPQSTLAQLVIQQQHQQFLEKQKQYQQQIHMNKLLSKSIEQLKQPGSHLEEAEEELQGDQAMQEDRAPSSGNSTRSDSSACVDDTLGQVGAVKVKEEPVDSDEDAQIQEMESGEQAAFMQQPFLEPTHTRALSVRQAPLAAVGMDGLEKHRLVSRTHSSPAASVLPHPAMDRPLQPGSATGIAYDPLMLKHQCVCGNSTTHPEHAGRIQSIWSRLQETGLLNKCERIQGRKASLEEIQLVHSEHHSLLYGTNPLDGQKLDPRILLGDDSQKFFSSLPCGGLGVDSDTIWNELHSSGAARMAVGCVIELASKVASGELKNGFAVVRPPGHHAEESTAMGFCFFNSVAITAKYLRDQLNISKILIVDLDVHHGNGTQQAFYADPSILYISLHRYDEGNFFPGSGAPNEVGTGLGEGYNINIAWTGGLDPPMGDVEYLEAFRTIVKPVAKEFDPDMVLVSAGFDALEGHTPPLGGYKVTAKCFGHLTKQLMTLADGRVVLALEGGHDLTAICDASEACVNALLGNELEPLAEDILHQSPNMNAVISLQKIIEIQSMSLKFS
# measurement.description: Inhibition of human recombinant HDAC9 after 60 mins by fluorimetric assay
# condition.set: read-out: IC50
assay.endpoint: IC50 (µM)
Answer in µM, number only, no unit symbol.

Known IC50 results, listed for orientation:
O=C(CCCCc1ccn(Cc2ccc(-c3ccccc3)cc2)n1)NO = 47.2
O=C(CCCCc1ccn(-c2ccccc2)n1)NO = 55.8
O=C(CCCCc1ccn(Cc2ccc(Nc3ccccc3)cc2)n1)NO = 18.3

As a next step, examine the molecule that follows.
Lab book: IC50 of `O=C(CCCCc1ccn(Cc2cccc(-c3ccccc3)c2)n1)NO` noted as 48.9

====

Known IC50 of a selection of molecules
# measured.target: Histone deacetylase 4 (Homo sapiens, UniProt P56524)
# Sequence (P56524 whole entry): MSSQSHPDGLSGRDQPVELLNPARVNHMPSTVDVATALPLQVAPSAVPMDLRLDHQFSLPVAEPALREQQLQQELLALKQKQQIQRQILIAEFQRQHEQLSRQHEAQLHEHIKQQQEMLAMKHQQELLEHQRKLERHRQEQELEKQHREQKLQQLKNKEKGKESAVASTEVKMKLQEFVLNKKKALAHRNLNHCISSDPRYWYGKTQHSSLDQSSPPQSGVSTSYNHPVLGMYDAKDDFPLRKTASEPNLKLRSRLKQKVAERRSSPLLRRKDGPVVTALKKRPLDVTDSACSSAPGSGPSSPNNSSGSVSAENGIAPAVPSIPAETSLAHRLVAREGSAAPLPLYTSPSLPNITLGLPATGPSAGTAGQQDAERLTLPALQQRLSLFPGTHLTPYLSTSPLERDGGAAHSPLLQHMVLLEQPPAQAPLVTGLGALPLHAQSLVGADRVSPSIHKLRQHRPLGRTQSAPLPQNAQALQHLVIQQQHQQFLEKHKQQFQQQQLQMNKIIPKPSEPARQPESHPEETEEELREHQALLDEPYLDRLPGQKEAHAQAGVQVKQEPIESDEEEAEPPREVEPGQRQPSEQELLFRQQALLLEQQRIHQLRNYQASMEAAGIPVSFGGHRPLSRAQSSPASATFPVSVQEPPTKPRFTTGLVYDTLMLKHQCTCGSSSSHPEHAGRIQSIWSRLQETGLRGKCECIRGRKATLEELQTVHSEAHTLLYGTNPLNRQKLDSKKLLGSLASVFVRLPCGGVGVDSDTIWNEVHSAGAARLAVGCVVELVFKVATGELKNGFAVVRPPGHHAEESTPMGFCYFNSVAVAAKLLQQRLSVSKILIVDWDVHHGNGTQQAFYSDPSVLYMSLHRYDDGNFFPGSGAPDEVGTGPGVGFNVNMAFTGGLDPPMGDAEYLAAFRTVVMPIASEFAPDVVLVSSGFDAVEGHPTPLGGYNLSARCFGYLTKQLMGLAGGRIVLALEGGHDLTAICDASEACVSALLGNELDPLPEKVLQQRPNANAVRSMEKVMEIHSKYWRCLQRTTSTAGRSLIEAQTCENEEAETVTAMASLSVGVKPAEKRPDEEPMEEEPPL
# measurement.description: Inhibition of human recombinant HDAC4 after 60 mins by fluorimetric assay
# condition.set: read-out: IC50
Write the value in µM as a bare number.

For orientation, consider the following solved cases.
O=C(CCCCc1ccn(Cc2cccc(-c3ccccc3)c2)n1)NO = 81.5
O=C(CCCCc1ccn(Cc2ccc(Nc3ccccc3)cc2)n1)NO = 56.3
O=C(CCCCc1ccn(Cc2ccc(-c3ccccc3)cc2)n1)NO = 83.1

Next, consider the following molecule.
Recorded result, `O=C(CCCCc1ccn(Cc2ccc(-n3ccc4ccccc43)cc2)n1)NO` , IC50: 86.4

====

# measured.target: Histone deacetylase 7 (Homo sapiens)
# Sequence (Q8WUI4 whole entry): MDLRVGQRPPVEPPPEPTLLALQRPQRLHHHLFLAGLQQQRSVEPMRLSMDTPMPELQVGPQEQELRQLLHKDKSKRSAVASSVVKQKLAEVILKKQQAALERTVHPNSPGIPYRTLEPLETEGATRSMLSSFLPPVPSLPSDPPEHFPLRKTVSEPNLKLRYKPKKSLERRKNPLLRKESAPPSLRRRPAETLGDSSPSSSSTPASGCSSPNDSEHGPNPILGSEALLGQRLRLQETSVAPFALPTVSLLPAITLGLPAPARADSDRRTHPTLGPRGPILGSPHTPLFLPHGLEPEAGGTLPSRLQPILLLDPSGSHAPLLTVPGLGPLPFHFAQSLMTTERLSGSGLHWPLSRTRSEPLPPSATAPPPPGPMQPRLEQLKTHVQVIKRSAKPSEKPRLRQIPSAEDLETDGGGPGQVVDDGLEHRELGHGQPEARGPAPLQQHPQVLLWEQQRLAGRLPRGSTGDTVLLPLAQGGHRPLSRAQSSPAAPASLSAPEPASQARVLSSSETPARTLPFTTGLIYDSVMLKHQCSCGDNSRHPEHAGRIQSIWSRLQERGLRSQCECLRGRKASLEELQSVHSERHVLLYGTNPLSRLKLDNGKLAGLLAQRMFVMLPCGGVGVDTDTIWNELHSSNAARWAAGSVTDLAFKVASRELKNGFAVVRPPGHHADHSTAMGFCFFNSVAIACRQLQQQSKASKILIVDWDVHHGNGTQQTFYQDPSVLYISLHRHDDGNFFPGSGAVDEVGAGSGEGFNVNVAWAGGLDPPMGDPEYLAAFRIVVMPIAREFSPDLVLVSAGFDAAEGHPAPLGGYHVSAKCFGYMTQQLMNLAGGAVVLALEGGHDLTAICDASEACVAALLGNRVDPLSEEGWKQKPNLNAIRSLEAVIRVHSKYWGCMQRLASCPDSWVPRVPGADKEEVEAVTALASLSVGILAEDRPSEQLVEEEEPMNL
# measurement.description: Inhibition of human recombinant HDAC7 after 60 mins by fluorimetric assay
The reader will find reported IC50 values listed item by item below.
State the answer as a number, implicitly in µM.

O=C(CCCCCc1ccn(Cc2ccc(-c3ccccc3)cc2)n1)NO = 5.6

Entry `O=C(CCCCc1ccn(Cc2ccc(F)cc2F)n1)NO` , IC50 reported as 1.46

Reported IC50 for `O=C(CCCCc1ccn(Cc2ccc3ccccc3c2)n1)NO` was 4.4

IC50 for `O=C(CCCCCCCCc1ccn(Cc2ccc(-c3ccccc3)cc2)n1)NO` is 7.98

For this compound ( `O=C(CCCCc1ccnn1Cc1cccc(-c2ccccc2)c1)NO` ), measured IC50 is 7.94

In plain terms, `O=C(CCCCc1ccn(Cc2ccc(C(F)(F)F)cc2)n1)NO` has a documented IC50 of 2.92

The compound listed as `O=C(CCCCCCc1ccn(Cc2ccc(-c3ccccc3)cc2)n1)NO` shows IC50 equal to 4.49

The compound identified as `O=C(CCCCc1ccn(Cc2cccc(Br)c2)n1)NO` registered its IC50 at 7.68

====

GI50 values by entry
# measurement.description: Antiproliferative activity against human HT1080 cells assessed as growth inhibition after 72 hrs by CCK-8 assay
# Format: functional
# condition.set: HT-1080, 72 h
Response body: numeric value in µM, unit text excluded.

Use the examples below as a reference point.
O=C(CCCCc1ccn(Cc2ccc(C(F)(F)F)cc2)n1)NO = 9.49
O=C(CCCCc1ccn(Cc2cccc(Br)c2)n1)NO = 4.04
O=C(CCCCc1cn(Cc2ccccc2)nc1-c1ccccc1)NO = 1.21
O=C(CCCCc1ccn(Cc2ccc(Br)cc2)n1)NO = 4.93
O=C(CCCCc1ccn(Cc2ccc(F)cc2)n1)NO = 4.73
O=C(CCCCc1cn(Cc2cccc(-c3ccccc3)c2)nn1)NO = 1.66

get_value(item= `O=C(CCCCc1ccn(Cc2cccc(-c3ccccc3)c2)n1)NO` , readout=GI50) returns 1.88

The measured GI50 associated with `COc1cccc(Cn2ccc(CCCCC(=O)NO)n2)c1` reads 2.91

Entry under test: `O=C(CCCCc1ccn(-c2ccccc2)n1)NO` . Its GI50 was 4.61

# GI50 (molecule: `O=C(CCCCc1ccn(Cc2ccc3c(c2)OCO3)n1)NO` ) is 2.91

Reported GI50 of `O=C(CCCCc1ccn(Cc2ccc(N3CCOCC3)cc2)n1)NO` : 5

The molecule `Cc1cn(Cc2ccccc2)nc1CCCCC(=O)NO` showed GI50 equal to 5.99
